Measured values drawn from patent US20230416347A1 for this set.

experimental_system: T1, Len(1-22) monomer peptide (Homo sapiens (Human), UniProt P06312 21-42)
T1 construct: Analyte in SPR; on beads in the pulldown assay; also called Vκ4(LEN(1-22) beads)
T1 peptide: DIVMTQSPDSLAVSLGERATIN
run_description: SPR, antibody as ligand, peptide as analyte
pKd: −log10 of the molar value.
Outcome: MET for pKd of at least 7; NOT MET for anything lower.

Check the entry VH9-M64V + VL4 (antibody, V domains shown, Humanized 11-1F4 variant) VH: QVQLQESGPGLVKPSETLSLTCTVSGFSLSSYGVSWIRQPPGKGLEWLGVIWGDGSTNYHPNLVSRVTISVDTSKSQVLFKLSSVTAADTAVYYCATLDYWGQGTSVTVSS VL: DVVMTQSPLSLPVTLGQPASISCRSSQSLVHRNGNTYLHWFQQRPGQSPRLLIYKVSNRFSGVPDRFSGSGSGTDFTLKISRVEAEDVGVYFCFQTTYVPNTFGGGTKLEIK : does pKd equal or exceed 7? MET

Exam item: decide whether the reported pKd for VH9-M64L + VL4 (antibody, V domains shown, Humanized 11-1F4 variant) VH: QVQLQESGPGLVKPSETLSLTCTVSGFSLSSYGVSWIRQPPGKGLEWLGVIWGDGSTNYHPNLLSRVTISVDTSKSQVLFKLSSVTAADTAVYYCATLDYWGQGTSVTVSS VL: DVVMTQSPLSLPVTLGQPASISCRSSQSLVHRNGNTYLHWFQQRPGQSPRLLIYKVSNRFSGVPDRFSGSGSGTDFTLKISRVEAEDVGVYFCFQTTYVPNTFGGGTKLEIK is at least 7. MET

Please tell me: is the binder VH9-D54A + VL4 (antibody, V domains shown, Humanized 11-1F4 variant) VH: QVQLQESGPGLVKPSETLSLTCTVSGFSLSSYGVSWIRQPPGKGLEWLGVIWGAGSTNYHPNLMSRVTISVDTSKSQVLFKLSSVTAADTAVYYCATLDYWGQGTSVTVSS VL: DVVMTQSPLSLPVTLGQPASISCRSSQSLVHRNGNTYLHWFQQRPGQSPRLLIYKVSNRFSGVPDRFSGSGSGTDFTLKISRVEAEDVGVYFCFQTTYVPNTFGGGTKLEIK at or over 7 in terms of pKd? NOT MET

# check: pKd of VH9-M64A + VL4 (antibody, V domains shown, Humanized 11-1F4 variant) VH: QVQLQESGPGLVKPSETLSLTCTVSGFSLSSYGVSWIRQPPGKGLEWLGVIWGDGSTNYHPNLASRVTISVDTSKSQVLFKLSSVTAADTAVYYCATLDYWGQGTSVTVSS VL: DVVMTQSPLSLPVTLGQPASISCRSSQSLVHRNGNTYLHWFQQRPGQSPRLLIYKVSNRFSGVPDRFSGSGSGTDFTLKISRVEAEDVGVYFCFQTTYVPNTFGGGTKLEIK is greater than or equal to 7 MET
